System: MDA-MB-435 melanoma
assay.name: NCI-60 one-dose screen, 48 h
conditions: 10 µM unless noted
About 83,000 compounds went through this panel and 20% of them were active in at least one assay; those are over-represented in the sample as a whole. The source made the active and inactive calls. How the source made its calls: active means growth percent below 10; inactive means the rest.
Hi! Could you answer with just one of these? active, inactive

Consider the following illustrative entries.
> print(dat)
                                   compound     class
1  CC(C)CSc1nc(NCCc2c[nH]c3ccccc23)c(C#N)c(-c2ccc(F)cc2)n1  inactive
2  N#Cc1cnn(C(=O)c2ccccc2Br)c1NC(=O)c1ccc(Br)cc1Cl  inactive
3  CC(=O)Nc1ccc(-c2nc3cc(-c4ccc(O)cc4)ccc3n2C)cc1  inactive
4  O=C1NC(=O)/C(=C/c2ccccc2OCc2cc3ccccc3nc2Cl)S1  inactive
5  Cn1cc(-c2nnc(N)nc2-c2c[nH]c3ccc(F)cc23)c2cccnc21    active
6  CC(C)C(C(=O)O)n1c(O)c(/C=C2/C=c3cc4c(cc3=NC2=O)OCO4)sc1=S (stereo not given)  inactive
7   O=C(CSc1nc2ccccc2c(=O)[nH]1)NCCN1CCCCC1  inactive
8  CC12CC[C@@H]3[C@]4(C)COC(c5cn[nH]c5-c5ccc(Cl)cc5)O[C@@H]4CC[C@@]3(C)[C@@H]1CC(C1=CCOC1=O)O2 (stereo not given in full)  inactive
9  COc1ccc(-c2ccnc(SCc3cc4ccccc4[nH]c3=O)n2)cc1OC  inactive

Let's switch to this compound now.
// query Would you mind telling me which call this test gave O=c1[nH]n(C(=S)N/N=C/c2ccccc2Cl)c(=O)c2ccccc12 ?
// result inactive

----------
Tested on: NCI-H226 lung
assay.name: NCI-60 one-dose screen, 48 h
conditions: 10 µM unless noted
This is part of a sample that, as a whole, favours compounds with a hit. Of some 83,000 tested, about 20% had one in any assay. Calls of active or inactive are those of the source. The calls were made as follows: active = growth percent below 10; inactive = the rest.
Assign a class; possible classes are active, inactive

compound	class
CSc1ccc(C(=O)Nc2ccc3nnn(/C(C#N)=C/c4ccccn4)c3c2)cc1	active

// query Hello, I am checking results. What call was entered for Brc1ccc(-c2n(Cc3ccc4ccccc4c3)c(-c3ccccc3)c(-c3ccccc3)[n+]2Cc2ccc3ccccc3c2)cc1 ?
// result active

// query Status in this test for Cc1nc(Nc2ncc(C(=O)Nc3c(C)cccc3Cl)s2)cc(N2CCN(CCCNC(=O)COc3ccc(C4CCC(=O)NC4=O)cc3)CC2)n1 (configuration not stated) ?
// result inactive

// query Answer briefly: the call reported for S=c1c2ccccc2nc2n1CCc1c-2[nH]c2ccccc12 in this assay.
// result inactive

// query Please state the recorded outcome for this compound: Cc1ccccc1[C@H]1C(C(=O)c2ccc(Cl)cc2)C2(N[C@@H]1c1ccccc1)C(=O)Nc1ccc(Br)cc12 (some centres not stated)
// result inactive

// query For this compound, state the assay outcome: C#C[C@]1(O)CC[C@H]2[C@@H]3CC=C4c5sc(-c6ccc(O)c(O)c6)nc5CC[C@]4(C)[C@H]3CC[C@@]21C
// result active

----------
Tested on: UO-31 renal
assay.name: NCI-60 one-dose screen, 48 h (100 = growth as untreated, 0 = no growth, -100 = all killed)
conditions: 10 µM unless noted
About 83,000 compounds went through this panel and 20% of them were active in at least one assay; those are over-represented in the sample as a whole. Activity calls are given as the source filed them. The calls were made as follows: active = growth percent below 10; inactive = the rest.
parameter: growth

Here are 6 compounds together with their reported answers.
compound	growth
O=C1Nc2cc(Cl)ccc2/C1=C/c1cccc(OCc2ccccn2)c1	29.7% (inactive)
CCN1C(=O)N(CC)C2NNC(Sc3c(C(=O)O)c4ccccc4n(C4CCCC4)c3=O)=NC21 (stereo not drawn)	46.8% (inactive)
CCOC(=O)C1=C(N)N(c2ccccc2)C2=C(C(=O)CC(C)(C)C2)C1c1ccc([N+](=O)[O-])cc1 (stereo not drawn)	95.7% (inactive)
CC1(C)CC[C@]2(C(=O)Nc3ccc(Br)cc3)CC[C@]3(C)C(=CCC4[C@@]5(C)C[C@@H](O)[C@H](O)[C@@](C)(CO)C5CC[C@]43C)C2C1 (stereo partly drawn)	21.1% (inactive)
N/C(=N\c1nc2ccccc2s1)NC(=O)Nc1ccccc1Br	11.3% (inactive)
C#C[C@]1(O)CC[C@H]2[C@@H]3CC=C4c5sc(-c6ccc(O)c(O)c6)nc5CC[C@]4(C)[C@H]3CC[C@@]21C	-93.8% (active)

// query Please look up its growth: CCN(CC)c1ccc(/C=N/Nc2nc(-c3ccc(C)cc3)cs2)c(O)c1
// result 83.2% (inactive)

// query Given CN(C)CCn1c2ccccc2c2nc3cc(C(F)(F)F)ccc3nc21 , state its recorded growth.
// result 11.9% (inactive)

// query Please give the measured growth for this compound: CC(C)c1sc(NC(=O)c2cc(NC(=O)c3cc(NC(=O)c4cscn4)cn3C)cn2C)nc1C(=O)NCCCN(C)C
// result 85% (inactive)

----------
Test system: MALME-3M melanoma
assay.name: NCI-60 one-dose screen, 48 h (100 = growth as untreated, 0 = no growth, -100 = all killed)
conditions: 10 µM unless noted
About 83,000 compounds went through this panel and 20% of them were active in at least one assay; those are over-represented in the sample as a whole.
Threshold-based label: growth under 50% gives label 1, growth not under 50% gives label 0.

As a guide, the following entries are already answered.
> print(dat)
                                   molecule    class
1     COc1ccc(-c2c(Nn3cnnn3)no[n+]2[O-])cc1  label 0
2  O=S(=O)(Nc1cccc(-n2cnc3cc(-c4ccc(O)cc4)ccc32)c1)C1CC1  label 1
3       N/C(=N\c1nc2ccccc2s1)NC(=O)NCCCCCCO  label 0
4  Cc1cc(=O)oc2cc(OCCCOc3ccc(/C=C/C(=O)Nc4ccccc4N)cc3)ccc12  label 1
5  COc1ccc(-c2nc3ccc(C(=O)NN4C(=O)c5ccc([N+](=O)[O-])cc5C4=O)cc3[nH]2)cc1  label 0

// query Consider the molecule CC(C)CSc1nc(NCCc2c[nH]c3ccccc23)c(C#N)c(-c2ccccc2)n1 . Is its growth strictly less than 50%?
// result label 0

// query Please state whether growth is below 50% for C=C1CC[C@@H]2[C@]3(C)COC(c4cn[nH]c4-c4ccccc4)O[C@@H]3CC[C@@]2(C)[C@@H]1C/C=C1/C(=O)OCC1O (stereo partly drawn)
// result label 1

// query Quick check: does O=c1oc2ccc(Br)cc2cc1C1=CSc2nc3sc4c(c3c(=O)n2N=C1)CCCC4 have growth under 50%?
// result label 0

// query growth under 50%? Item: COc1ccc2[nH]c(=O)c(CSc3nccc(-c4ccc(OC)c(OC)c4)n3)cc2c1
// result label 1

// query A record lists O=C(NNc1nc2cc(F)ccc2n2c(CN3CC4CNCC4C3)ccc12)c1ccncn1 (stereo not drawn) . Is its growth below 50%?
// result label 1

// query Here's an entry: NS(=O)(=O)c1ccc(N=Nc2c(O)n(CC(=O)Nc3ccccc3Cl)c3ccccc23)cc1 . Is its growth below 50%?
// result label 1

// query Could you please tell me whether growth recorded for C=C1CC[C@@H]2[C@]3(C)COC(c4cn[nH]c4-c4cccc(Br)c4)O[C@@H]3CC[C@@]2(C)[C@@H]1C/C=C1/C(=O)OCC1O (stereo partly drawn) is less than 50%?
// result label 1

// query Determine whether this molecule shows growth lower than 50% (ties excluded): COc1cc2c(c(OC)c1OC)C(=O)CC(c1cccc(NC(=O)c3cc(NC(=O)[C@H](C)N)ccc3Cl)c1)O2 (stereo partly drawn)
// result label 1

// query Input Cc1ccc(C(=O)NN2C(=O)/C(=C/C=C/c3ccc([N+](=O)[O-])o3)SC2=S)cc1 ; condition: growth strictly below 50%. Does it hold?
// result label 1

// query Say whether its growth is strictly beneath 50%. Entry: COc1ccc2oc3c4[nH]c5ccccc5c4c4c(c3c2c1)C(=O)N(C(=O)OC(C)(C)C)C4=O
// result label 1

// query Confirm or reject: growth of CCN(CC)c1ccc(/C=N/Nc2nc(-c3ccc(Br)cc3)cs2)c(O)c1 lies strictly below 50%
// result label 0

// query Does O=C1/C(=C/C2=Cc3ccccc3OC2)SC(=S)N1c1ccccc1F have growth strictly under 50%?
// result label 0

// query Threshold test, growth < 50%: O=C(COc1ccc(NC(=O)Nc2ccc(Cl)c(Cl)c2)cc1)N=Nc1c(O)[nH]c2ccc(Br)cc12
// result label 1

----------
Tested on: HCT-15 colon
assay.name: NCI-60 one-dose screen, 48 h
conditions: 10 µM unless noted
About 83,000 compounds went through this panel and 20% of them were active in at least one assay; those are over-represented in the sample as a whole. The source made the active and inactive calls. The calls were made as follows: active = growth percent below 10; inactive = the rest.
Thanks in advance; please answer with one of these: TRUE (active), FALSE (inactive)

Past entries and their recorded results:
> print(dat)
                                   compound        system  class
1  O=C(Cn1nc(-c2ccccc2)ccc1=O)N/N=C/c1ccc(N2CCOCC2)cc1  HCT-15 colon  FALSE
2  CCCCCCCCOc1cccc(S(=O)(=O)Nc2ccc(C)cc2C(=O)O)c1  HCT-15 colon  FALSE
3  O=C1NC(=O)c2c1c1c3cc(Br)ccc3[nH]c1c1oc3ccc(F)cc3c21  HCT-15 colon  FALSE
4  Cc1cc(=O)oc2cc(OCCOc3ccc(/C=C/C(=O)Nc4ccccc4N)cc3)ccc12  HCT-15 colon  FALSE

// query Which result was noted for this compound in the test: Cc1occc1C(=O)NN1C(=O)/C(=C/C=C/c2ccc([N+](=O)[O-])o2)SC1=S
// result TRUE

// query Answer briefly: the call reported for CCS(=O)(=O)N1CCCC(C(=O)Nc2nc3ccc(NC(=O)c4ccc(F)c(OC)c4F)cc3s2)C1 (stereo not drawn) in this assay.
// result FALSE

// query Would you mind telling me which call this test gave CC(=O)NNc1ccc2nnc(-c3ccccc3)n2n1 ?
// result FALSE

Values were extracted from PubChem BioAssay (NCI).
